// data source = ChEMBL document CHEMBL5321229

- Target Entity: Neuraminidase (Influenza A virus (A/Memphis/1/1971(H3N2)))
- Sequence (P03471 whole entry): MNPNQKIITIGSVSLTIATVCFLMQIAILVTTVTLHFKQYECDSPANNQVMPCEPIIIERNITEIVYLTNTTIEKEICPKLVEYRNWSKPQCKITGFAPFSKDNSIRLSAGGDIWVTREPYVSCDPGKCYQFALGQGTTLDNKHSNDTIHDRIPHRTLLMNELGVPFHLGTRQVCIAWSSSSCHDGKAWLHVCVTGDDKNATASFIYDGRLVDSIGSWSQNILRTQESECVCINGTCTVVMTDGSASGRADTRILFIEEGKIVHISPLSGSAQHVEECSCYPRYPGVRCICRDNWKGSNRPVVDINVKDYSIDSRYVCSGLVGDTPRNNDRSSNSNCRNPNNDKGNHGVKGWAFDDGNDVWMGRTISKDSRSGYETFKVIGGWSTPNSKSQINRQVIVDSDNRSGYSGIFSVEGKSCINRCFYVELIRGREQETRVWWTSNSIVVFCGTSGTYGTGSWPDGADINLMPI
Metric: IC50 (nM)

{"columns": ["Compound String", "Unit", "Result Number"],
 "data": [
  ["CCC(CC)O[C@@H]1C=C(C(=O)O)C[C@H](n2nncc2-c2cccc(N)c2)[C@H]1NC(C)=O", "nM", 19]
]}

----------
- Run Description: Inhibition of influenza A virus H5N1 (A/Anhui/2005) neuraminidase using fluorogenic MUNANA as substrate
pIC50: −log10 of the molar value.
Metric: pIC50

{"columns": ["Compound String", "Result Number"],
 "data": [
  ["CCC(CC)O[C@@H]1C=C(C(=O)O)C[C@H](NS(C)(=O)=O)[C@H]1NC(C)=O", 5.46]
]}

----------
- Run Description: Inhibition of influenza B virus B/Victoria/70 neuraminidase using 2'-(4-methylumbelliferyl)-alpha-D-acetylneuraminic acid as substrate incubated for 10 to 30 mins by fluorescence-based assay
pIC50: −log10 of the molar value.

{"columns": ["Compound String", "pIC50"],
 "data": [
  ["CCC(CC)[C@H](NC(C)=O)[C@@H]1C[C@@H](C(=O)O)C[C@H]1N=C(N)N", "> 8.00"]
]}

----------
Ki, Neuraminidase (Influenza A virus (A/Puerto Rico/8/1934(H1N1))), per-entry values.
Metric: Ki (nM)

{"columns": ["Compound String", "Metric", "Result Number"],
 "data": [
  ["CCC(CC)O[C@@H]1C=C(P(=O)(O)OC[C@H]2O[C@@H](OC)[C@H](O)[C@@H](O)[C@H]2O)C[C@H](N)[C@H]1NC(C)=O", "Ki", 0.74],
  ["CCC(CC)O[C@@H]1C=C(P(=O)(O)O[C@H]2[C@@H](O)[C@@H](CO)O[C@@H](OC)[C@@H]2O)C[C@H](N)[C@H]1NC(C)=O", "Ki", 0.29]
]}

----------
- Run Description: Inhibition of influenza A virus A/Singapore/157 neuraminidase using 2'-(4-methylumbelliferyl)-alpha-D-acetylneuraminic acid as substrate incubated for 10 to 30 mins by fluorescence-based assay
Metric: IC50

{"columns": ["Compound String", "Result"],
 "data": [
  ["CCC(CC)[C@H](NC(C)=O)[C@@H]1C[C@@H](C(=O)O)C[C@H]1N=C(N)N", "< 10 nM"]
]}

----------
Here, each record is paired with measured pIC50 data.
- Target Entity: Neuraminidase (Influenza A virus, UniProt B4URF0)
- Sequence (B4URF0 whole entry): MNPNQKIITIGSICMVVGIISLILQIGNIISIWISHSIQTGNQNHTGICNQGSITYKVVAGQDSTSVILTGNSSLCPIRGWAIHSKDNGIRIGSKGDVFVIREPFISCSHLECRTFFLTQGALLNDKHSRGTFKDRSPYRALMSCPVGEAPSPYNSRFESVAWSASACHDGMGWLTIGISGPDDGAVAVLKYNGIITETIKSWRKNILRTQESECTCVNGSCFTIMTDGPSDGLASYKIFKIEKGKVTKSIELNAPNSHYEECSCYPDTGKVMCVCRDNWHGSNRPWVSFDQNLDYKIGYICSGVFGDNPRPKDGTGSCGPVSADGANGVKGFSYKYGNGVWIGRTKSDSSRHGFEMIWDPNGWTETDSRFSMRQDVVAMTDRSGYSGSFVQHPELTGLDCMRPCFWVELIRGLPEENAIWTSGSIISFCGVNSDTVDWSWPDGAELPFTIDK
pIC50: −log10 of the molar value.

{"columns": ["Compound String", "Target Entity", "pIC50"],
 "data": [
  ["CO[C@@H]([C@@H]1OC(C(=O)O)=C[C@H](NC(=N)N)[C@H]1NC(C)=O)[C@H](O)CO", "Neuraminidase (Influenza A virus, UniProt B4URF0)", 7.75],
  ["CCCCCCCCCCCCO[C@@H]([C@@H]1OC(C(=O)O)=C[C@H](N=C(N)N)[C@H]1NC(C)=O)[C@H](O)CO", "Neuraminidase (Influenza A virus, UniProt B4URF0)", 7.00],
  ["CCCCCCCCO[C@@H]([C@@H]1OC(C(=O)O)=C[C@H](N=C(N)N)[C@H]1NC(C)=O)[C@H](O)CO", "Neuraminidase (Influenza A virus, UniProt B4URF0)", 7.34],
  ["CCCCCO[C@@H]([C@@H]1OC(C(=O)O)=C[C@H](N=C(N)N)[C@H]1NC(C)=O)[C@H](O)CO", "Neuraminidase (Influenza A virus, UniProt B4URF0)", 7.45],
  ["CCCO[C@@H]([C@@H]1OC(C(=O)O)=C[C@H](N=C(N)N)[C@H]1NC(C)=O)[C@H](O)CO", "Neuraminidase (Influenza A virus, UniProt B4URF0)", 7.09],
  ["CCO[C@@H]([C@@H]1OC(C(=O)O)=C[C@H](N=C(N)N)[C@H]1NC(C)=O)[C@H](O)CO", "Neuraminidase (Influenza A virus, UniProt B4URF0)", 7.13]
]}
